- Test system: HS 578T breast
- METHOD_NOTES: NCI tumour cell line growth inhibition, 48 h
Here the recorded TGI is given for each entry.
REPORTED_PROPERTY: TGI

- COMPOUND: "CCN(CC)C(=S)/N=C(\\SC(=S)N(CC)CC)c1ccccc1"
  ENDPOINT_RESULT: "> 100 µM"
- COMPOUND: "C[C@@H](Oc1ccc(Oc2cnc3ccc(Cl)cc3n2)cc1)C(=O)O"
  ENDPOINT_RESULT: "> 100 µM"
- COMPOUND: "O=C(/C=C\\c1ccsc1)c1ccccc1"
  ENDPOINT_RESULT: "20.4 µM"
- COMPOUND: "COc1ccc(OC)c(N=Cc2cc(OC)c(OC)c(OC)c2)c1"
  ENDPOINT_RESULT: "> 100 µM"
- COMPOUND: "O=C1CC(C(=O)O)Cc2c(Br)ccc(O)c21 (stereo not given)"
  ENDPOINT_RESULT: "> 100 µM"
- COMPOUND: "O=C(Nc1ccc(Oc2ccc(NC(=O)Nc3ccccc3Cl)cc2)cc1)Nc1ccccc1Cl"
  ENDPOINT_RESULT: "> 100 µM"
- COMPOUND: "Cc1ccc(S(=O)(=O)NN=C2C(C)(C)CC2(C)C)cc1"
  ENDPOINT_RESULT: "> 100 µM"
- COMPOUND: "C/C(=N\\Nc1nc2ccccc2o1)c1ncccn1"
  ENDPOINT_RESULT: "> 61 µM"
- COMPOUND: "[N-]=[N+]=NCCCn1c2c(c3ccc([N+](=O)[O-])cc3c1=O)C(=O)c1cc(I)ccc1-2"
  ENDPOINT_RESULT: "> 100 µM"
- COMPOUND: "CCOC(=O)NC(Nc1ccc(S(=O)(=O)Nc2ccc(OC)nn2)cc1)(C(F)(F)F)C(F)(F)F"
  ENDPOINT_RESULT: "> 100 µM"
- COMPOUND: "COc1ccc2nc3cc([N+](=O)[O-])ccc3c(NNc3ccc([N+](=O)[O-])cc3)c2c1"
  ENDPOINT_RESULT: "> 100 µM"
- COMPOUND: "COc1ccc(/C=C2\\C[C@H]3[C@@H]4CC=C5C[C@@H](OC(C)=O)CC[C@]5(C)[C@H]4CC[C@]3(C)C2=O)cc1OC"
  ENDPOINT_RESULT: "> 100 µM"
- COMPOUND: "CCOC(=O)c1cc(C2=CCNC2=O)c(-c2cc(C)no2)[nH]1"
  ENDPOINT_RESULT: "> 100 µM"
- COMPOUND: "Cc1nn(C(=O)c2ccc(Cl)cc2)c2c1C(c1ccccc1O)SC(N)=N2 (stereo not given)"
  ENDPOINT_RESULT: "> 10 µM"
- COMPOUND: "O=C(/C=C\\c1cc(Br)ccc1O)/C=C/c1cc(Br)ccc1O"
  ENDPOINT_RESULT: "39.2 µM"

----------
- System: ACHN renal
- METHOD_NOTES: NCI tumour cell line growth inhibition, 48 h
REPORTED_PROPERTY: TGI (µM)

- COMPOUND: "Cn1cnc([N+](=O)[O-])c1Sc1nc2ccccc2o1"
  RESULT_COMPARATOR: "="
  ENDPOINT_RESULT: 24.9
- COMPOUND: "Clc1cc2nc(C3CCCCO3)[nH]c2cc1Cl (stereo not given)"
  RESULT_COMPARATOR: ">"
  ENDPOINT_RESULT: 100
- COMPOUND: "C1=Nc2ccccc2Cn2nncc21"
  RESULT_COMPARATOR: ">"
  ENDPOINT_RESULT: 100
- COMPOUND: "COC(C)(C)[C@@H]1CCCN1C1=C(C)C(=O)OC1"
  RESULT_COMPARATOR: ">"
  ENDPOINT_RESULT: 100
- COMPOUND: "O=C(CN(Cc1ccccc1)Cc1ccccc1)N1CCc2c([nH]c3ccccc23)C1c1cccnc1 (stereo not given)"
  RESULT_COMPARATOR: ">"
  ENDPOINT_RESULT: 100
- COMPOUND: "Cc1ccc(C(=O)C(c2nc3n(c2O)C(=N)N=N3)c2nc3n(c2O)C(=N)N=N3)cc1 (stereo not given)"
  RESULT_COMPARATOR: ">"
  ENDPOINT_RESULT: 100
- COMPOUND: "Cc1ccc(NC(=O)CCc2nnc3s/c(=C\\c4cccc([N+](=O)[O-])c4)c(=O)n23)cc1"
  RESULT_COMPARATOR: ">"
  ENDPOINT_RESULT: 100
- COMPOUND: "CCC[CH2][Sn]1([CH2]CCC)[O]C(=O)CN=C(C)c2ccccc2[O]1"
  RESULT_COMPARATOR: "="
  ENDPOINT_RESULT: 2.13
- COMPOUND: "CCOC(=O)NC(Nc1ccc(S(=O)(=O)Nc2ccc(OC)nn2)cc1)(C(F)(F)F)C(F)(F)F"
  RESULT_COMPARATOR: "="
  ENDPOINT_RESULT: 90.7
- COMPOUND: "O=C(CSc1nnc(Cc2ccccc2)o1)Nc1ccc(Cl)cc1[N+](=O)[O-]"
  RESULT_COMPARATOR: "="
  ENDPOINT_RESULT: 25.2
